Test system: Wolbachia pipientis
method_summary: Anti-Wolbachia Cell-Based Screen
Assay type: functional
Parameters: scale not given: in the data most compounds retested in dose-response had high values
stated_conditions: 5 µM
Hit rate of the full screen: of about 48,000 compounds, about 13,000 (27%) showed an effect of 50% or more. The list shows a part of the results.
recorded_metric: Percent Effect (%)
// note: answer is a bare numeric in %

# input molecule: CNC(=O)c1cc2c(s1)CCN(C(=O)CCC1CCCN(C)C1)C2 (stereo unspecified) ; wanted: its Percent Effect
-26.69

Subsequent entry: `CCNC(=O)Cc1ccc(NC(=O)NC(CC)CC)cc1`
3.76

Subsequent entry: `CN(C(=O)CCc1ccsc1)S(C)(=O)=O`
-3.197

Subsequent entry: `O=C(NC1CC1)[C@@H]1CCO[C@@H]2CCN(CC3CCC3)C[C@H]21.O=C(O)C(F)(F)F`
-19.72

Subsequent entry: `COc1ccc(-n2ccnc2-c2cnc(C(C)C)nc2)cc1C(=O)O`
-1.473

Subsequent entry: `O=C(NC1CC1)[C@@H]1CCO[C@@H]2CCN(CC3CCC3)C[C@@H]21.O=C(O)C(F)(F)F`
20.69

Subsequent entry: `NC(=O)Cc1ccc(NC(=O)C2CCOCC2)cc1`
-3.616

Subsequent entry: `CC(C)C(=O)NS(=O)(=O)CCc1ccccc1`
-1.365

Subsequent entry: Cc1ccc(C)c(Oc2ccc(CNC(=O)C3CCS(=O)(=O)C3)cn2)c1 (stereo unspecified)
-2.907

Subsequent entry: `CCn1/c(=N/C(=O)CSCC(=O)Nc2nccs2)sc2ccccc21`
6.405

Subsequent entry: `Cc1cc(C)cc(NC(=O)N(CCC#N)CCCN(C)C)c1`
13.87
